tgt: SMARCA2 (Homo sapiens)
Sequence (P51531 whole entry): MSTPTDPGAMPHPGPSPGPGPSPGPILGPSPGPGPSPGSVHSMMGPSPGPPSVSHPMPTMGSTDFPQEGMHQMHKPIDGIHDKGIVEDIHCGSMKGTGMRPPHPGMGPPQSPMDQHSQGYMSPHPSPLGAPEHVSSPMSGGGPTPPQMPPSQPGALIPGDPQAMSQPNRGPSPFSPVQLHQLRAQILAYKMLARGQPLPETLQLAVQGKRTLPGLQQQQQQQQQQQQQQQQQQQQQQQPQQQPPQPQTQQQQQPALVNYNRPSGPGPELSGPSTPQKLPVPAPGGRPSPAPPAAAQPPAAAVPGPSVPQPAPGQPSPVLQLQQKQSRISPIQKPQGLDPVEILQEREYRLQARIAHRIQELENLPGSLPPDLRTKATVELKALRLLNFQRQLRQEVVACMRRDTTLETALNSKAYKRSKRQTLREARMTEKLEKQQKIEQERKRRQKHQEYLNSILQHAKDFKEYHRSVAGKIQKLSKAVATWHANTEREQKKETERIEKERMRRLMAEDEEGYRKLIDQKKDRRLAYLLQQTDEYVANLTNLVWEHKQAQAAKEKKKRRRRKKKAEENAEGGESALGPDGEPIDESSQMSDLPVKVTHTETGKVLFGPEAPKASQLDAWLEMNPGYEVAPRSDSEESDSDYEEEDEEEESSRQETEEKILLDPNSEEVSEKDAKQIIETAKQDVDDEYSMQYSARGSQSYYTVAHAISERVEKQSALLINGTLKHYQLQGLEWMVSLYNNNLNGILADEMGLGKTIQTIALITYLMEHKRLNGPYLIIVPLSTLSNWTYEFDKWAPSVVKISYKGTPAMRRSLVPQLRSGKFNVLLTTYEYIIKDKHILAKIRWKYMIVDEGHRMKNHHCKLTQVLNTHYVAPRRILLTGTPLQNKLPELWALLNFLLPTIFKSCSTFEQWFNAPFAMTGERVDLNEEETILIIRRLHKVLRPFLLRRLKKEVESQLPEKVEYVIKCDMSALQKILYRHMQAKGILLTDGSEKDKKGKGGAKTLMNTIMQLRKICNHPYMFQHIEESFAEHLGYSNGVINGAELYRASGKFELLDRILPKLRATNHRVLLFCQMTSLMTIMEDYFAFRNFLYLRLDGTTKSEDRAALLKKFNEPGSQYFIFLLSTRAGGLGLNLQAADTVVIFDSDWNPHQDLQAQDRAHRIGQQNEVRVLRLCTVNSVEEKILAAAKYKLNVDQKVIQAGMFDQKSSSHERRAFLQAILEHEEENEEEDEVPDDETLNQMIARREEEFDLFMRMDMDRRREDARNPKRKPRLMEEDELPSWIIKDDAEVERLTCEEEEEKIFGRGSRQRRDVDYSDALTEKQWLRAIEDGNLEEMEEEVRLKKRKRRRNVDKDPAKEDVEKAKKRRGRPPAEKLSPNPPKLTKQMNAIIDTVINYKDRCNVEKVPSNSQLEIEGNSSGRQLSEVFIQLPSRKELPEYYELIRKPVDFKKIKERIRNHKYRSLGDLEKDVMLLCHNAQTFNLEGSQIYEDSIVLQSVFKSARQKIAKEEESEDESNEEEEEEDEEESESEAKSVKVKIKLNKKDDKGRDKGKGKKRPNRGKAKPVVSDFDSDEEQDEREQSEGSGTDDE
procedure summary: MSD SMARCA2 degradation in A549 cell line
Type: cell-based
test conditions: A549 cells, 24 h, read-out: SMARCA2 MSD A549 degradation 24 h: Average external-Abs DC50
For each entry below, report its DC50 value.

Could you tell me which DC50 is on file for Cn1c(=O)n(C2CCC(=O)NC2=O)c2ccc(CCCCCCCCCNCc3ccc(C#Cc4cc(NC(=O)Nc5cc(F)ncc5CO)ccn4)cc3)cc21 (stereo not drawn) ?
> 1000 nM

For Cc1ncsc1-c1ccc(CNC(=O)[C@@H]2C[C@@H](O)CN2C(=O)[C@@H](NC(=O)C23CCC(CN4CCC(c5cnc(N6C7CCC6CN(c6cc(-c8ccccc8O)nnc6N)C7)nc5)CC4)(CC2)CC3)C(C)(C)C)cc1 then?
< 100 nM

For Cc1ncsc1-c1ccc(CNC(=O)[C@@H]2C[C@@H](O)CN2C(=O)[C@@H](NC(=O)c2ccc(-c3ccc(N4CCC(Cn5cc(-c6cc(-c7ccccc7O)nnc6N)cn5)CC4)cc3)cc2)C(C)(C)C)cc1 then?
> 1000 nM

For Cc1ncsc1-c1ccc(CNC(=O)[C@@H]2C[C@@H](O)CN2C(=O)[C@@H](NC(=O)CCN(C)Cc2ccc(N3CCN(c4cc(-c5ccccc5O)nnc4N)CC3)cc2)C(C)(C)C)cc1 then?
> 1000 nM

For Cc1ncsc1-c1ccc(CNC(=O)[C@@H]2C[C@@H](O)CN2C(=O)[C@@H](NC(=O)[C@H]2CC[C@@H](CCCCCN3CCC(Cn4cc(-c5cc(-c6ccccc6O)nnc5N)cn4)CC3)CC2)C(C)(C)C)cc1 then?
100 to 500 nM

For Cc1ncsc1-c1ccc(CNC(=O)[C@@H]2C[C@@H](O)CN2C(=O)[C@@H](NC(=O)C2CCN(C(=O)c3cnc(N4C5CCC4CN(c4cc(-c6ccccc6O)nnc4N)C5)nc3)CC2)C(C)(C)C)cc1 then?
> 1000 nM

---

For each entry below, report its DC50 value.
tgt: SMARCA2 (Homo sapiens)
procedure summary: MSD SMARCA2 degradation in A549 cell line
Format: cell-based
test conditions: A549 cells, 24 h, read-out: SMARCA2 MSD A549 degradation 24 h: Average external-Abs DC50

# get_value(readout= DC50, system= SMARCA2 (Homo sapiens)) for Cc1ncsc1-c1ccc(CNC(=O)[C@@H]2C[C@@H](O)CN2C(=O)[C@@H](NC(=O)c2ccc(N3CC(n4cc(-c5cc(-c6ccccc6O)nnc5N)cn4)C3)cc2)C(C)(C)C)cc1
100 to 500 nM

For Cc1ncsc1-c1ccc(CNC(=O)[C@@H]2C[C@@H](O)CN2C(=O)[C@@H](NC(=O)[C@H]2CC=C(c3cnc(N4C5CCC4CN(c4cc(-c6ccccc6O)nnc4N)C5)nc3)CC2)C(C)(C)C)cc1 then?
100 to 500 nM

For CN(Cc1cccc(C#Cc2cc(NC(=O)Nc3cc(F)ncc3CO)ccn2)c1)CC1CCN(Cc2cccc3c2n(C)c(=O)n3C2CCC(=O)NC2=O)CC1 (stereo not drawn) then?
> 1000 nM

---

For each entry below, report its DC50 value.
tgt: SMARCA4 (Homo sapiens, UniProt P51532)
Construct: SMARCA2 and SMARCA4 protein degradation in MV4-11 cells; endogenous in cells; host or cells: MV4-11
Sequence (P51532 whole entry): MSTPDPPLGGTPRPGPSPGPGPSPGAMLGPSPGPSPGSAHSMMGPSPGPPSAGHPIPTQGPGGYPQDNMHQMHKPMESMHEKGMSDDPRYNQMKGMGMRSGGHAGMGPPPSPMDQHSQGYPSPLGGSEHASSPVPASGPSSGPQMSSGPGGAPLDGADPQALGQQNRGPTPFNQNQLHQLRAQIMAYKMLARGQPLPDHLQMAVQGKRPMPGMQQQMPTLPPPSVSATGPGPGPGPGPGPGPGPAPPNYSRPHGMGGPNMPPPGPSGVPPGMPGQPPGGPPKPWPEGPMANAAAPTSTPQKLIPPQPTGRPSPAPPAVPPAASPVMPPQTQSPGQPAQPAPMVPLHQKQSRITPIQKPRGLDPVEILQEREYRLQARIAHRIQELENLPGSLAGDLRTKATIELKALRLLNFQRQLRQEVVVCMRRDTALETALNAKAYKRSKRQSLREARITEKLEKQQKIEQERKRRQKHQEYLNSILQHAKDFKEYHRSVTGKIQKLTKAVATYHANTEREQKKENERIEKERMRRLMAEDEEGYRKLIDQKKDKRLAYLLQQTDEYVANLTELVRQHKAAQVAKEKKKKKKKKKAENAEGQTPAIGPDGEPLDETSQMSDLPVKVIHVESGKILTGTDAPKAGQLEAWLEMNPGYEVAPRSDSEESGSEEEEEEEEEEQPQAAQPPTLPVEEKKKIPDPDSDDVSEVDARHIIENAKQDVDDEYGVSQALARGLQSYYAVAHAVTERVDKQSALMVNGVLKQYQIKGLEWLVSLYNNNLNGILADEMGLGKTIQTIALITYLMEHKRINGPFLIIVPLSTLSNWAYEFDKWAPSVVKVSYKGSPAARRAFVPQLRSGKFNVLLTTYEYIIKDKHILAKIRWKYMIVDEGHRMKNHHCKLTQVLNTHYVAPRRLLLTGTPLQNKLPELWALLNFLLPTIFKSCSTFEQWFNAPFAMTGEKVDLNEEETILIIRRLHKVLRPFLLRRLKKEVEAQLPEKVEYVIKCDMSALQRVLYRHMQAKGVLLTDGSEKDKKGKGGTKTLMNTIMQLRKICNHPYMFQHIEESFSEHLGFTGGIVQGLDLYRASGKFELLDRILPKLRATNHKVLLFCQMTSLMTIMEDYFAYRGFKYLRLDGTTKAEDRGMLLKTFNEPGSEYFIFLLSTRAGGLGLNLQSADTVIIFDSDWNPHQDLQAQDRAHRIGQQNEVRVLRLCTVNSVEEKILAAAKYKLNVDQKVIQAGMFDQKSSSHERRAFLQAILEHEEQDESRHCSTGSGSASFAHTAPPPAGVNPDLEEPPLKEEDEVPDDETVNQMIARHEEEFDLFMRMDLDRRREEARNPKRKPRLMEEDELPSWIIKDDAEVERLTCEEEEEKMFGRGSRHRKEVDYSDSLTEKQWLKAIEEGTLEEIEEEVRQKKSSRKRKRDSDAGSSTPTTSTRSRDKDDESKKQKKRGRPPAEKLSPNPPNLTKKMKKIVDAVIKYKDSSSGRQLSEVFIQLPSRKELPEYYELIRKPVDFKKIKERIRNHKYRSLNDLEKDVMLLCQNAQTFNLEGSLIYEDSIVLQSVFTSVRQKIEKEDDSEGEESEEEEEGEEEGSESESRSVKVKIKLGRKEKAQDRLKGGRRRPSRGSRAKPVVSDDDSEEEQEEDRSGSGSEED
procedure summary: SMARCA4 Western blot MV4-11 degradation
Type: cell-based
test conditions: MV4-11 cells, 24 h, read-out: SMARCA4 WB MV411 degradation 24 h: Average external-Abs DC50

# get_value(readout= DC50, system= SMARCA4 (Homo sapiens, UniProt P51532)) for Cn1c(=O)n(C2CCC(=O)NC2=O)c2ccc(CCCCCCCCCNC(=O)c3cccc(C#Cc4cc(NC(=O)Nc5ccnc(Cl)c5)ccn4)c3)cc21 (centres unmarked)
100 to 500 nM

For Cn1c(=O)n(C2CCC(=O)NC2=O)c2ccc(C3CC4(C3)CC(N3CCC(c5cnc(N6C7CCC6CN(c6cc(-c8ccccc8O)nnc6N)C7)nc5)CC3)C4)cc21 (single isomer, unassigned) [I-536 (P1)] then?
< 100 nM

For Cc1ncsc1-c1ccc(CNC(=O)[C@@H]2C[C@@H](O)CN2C(=O)[C@@H](NC(=O)N2CCN(C(=O)c3cnc(N4C5CCC4CN(c4cc(-c6ccccc6O)nnc4N)C5)nc3)CC2)C(C)(C)C)cc1 then?
100 to 500 nM

For Cc1ncsc1-c1ccc(CNC(=O)[C@@H]2C[C@@H](O)CN2C(=O)[C@@H](NC(=O)N[C@H]2CC[C@H](c3cnc(N4C5CCC4CN(c4cc(-c6ccccc6O)nnc4N)C5)nc3)CC2)C(C)(C)C)cc1 then?
< 100 nM

For Cc1ncsc1-c1ccc(CNC(=O)[C@@H]2C[C@@H](O)CN2C(=O)[C@@H](NC(=O)[C@H]2C[C@@H](N3CCC(c4cnc(N5C6CCC5CN(c5cc(-c7ccccc7O)nnc5N)C6)nc4)CC3)C2)C(C)(C)C)cc1 then?
501 to 1000 nM
